biological target: PDE5 enzyme isolated from human platelets (Homo sapiens (Human)); experiment: PDE5 assay (Example 109), formation of 5′GMP from cGMP, SPA;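 note: tritiated 5′GMP counted by scintillation after SPA bead capture, enzyme reaction run 60 min at 22 °C, basal control is the mixture without enzyme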
pIC50: −log10 of the molar value.
ENDPOINT: pIC50

> print(dat)
                                   molecule  relation  obs.value
1  CCCOc1ccc(S(=O)(=O)N2CCN(CCO[N+](=O)[O-])CC2)cc1-c1nc2c(CCC)cn(CC)c2c(=O)[nH]1 [Compound 1i]         =       8.70
2  CCCOc1ccc(S(=O)(=O)N2CCN(CCO)CC2)cc1-c1nc2c(CCC)cn(CC)c2c(=O)[nH]1 [mirodenafil, reference compound]         =       9.47
3  CCCc1cn(C)c2c(=O)[nH]c(-c3cc(S(=O)(=O)N4CCC(CCO)CC4)ccc3OCC)nc12 [Compound 14]         =       9.52
4  CCCc1cn(C)c2c(=O)[nH]c(-c3cc(S(=O)(=O)N4CCN(CCCO[N+](=O)[O-])CC4)ccc3OCC)nc12 [Compound 2b]         =       8.70
5  CCCOc1ccc(S(=O)(=O)N2CCC(CCCO[N+](=O)[O-])CC2)cc1-c1nc2c(CCC)cn(CC)c2c(=O)[nH]1 [Compound 1d]         <       8.00
6  CCCOc1ccc(S(=O)(=O)N2CCC(CCO)CC2)cc1-c1nc2c(CCC)cn(CC)c2c(=O)[nH]1 [Compound 5]         =       9.54
7  CCCOc1ccc(S(=O)(=O)N2CCC(CCO)CC2)cc1-c1nc2c(CCC)c(/C=N/O)n(CC)c2c(=O)[nH]1 [Compound 8]         =       8.57
8  CCCc1cn(C)c2c(=O)[nH]c(-c3cc(S(=O)(=O)N4CCN(CCO[N+](=O)[O-])CC4)ccc3OCC)nc12 [Compound 2d]         =       8.92
9  CCCOc1ccc(S(=O)(=O)N2CCN(CCO[N+](=O)[O-])CC2)cc1-c1nc2c(CCC)c(/C=N/O)n(CC)c2c(=O)[nH]1 [Compound 1a]         =       7.92

====

assay: Measurements of human plasma protein binding; assay type: in vitro ADME
Reported fraction unbound is given for each of the following compounds.
ENDPOINT: fraction unbound

> print(dat)
                                   compound  obs.value
1  CCCOc1ccc(S(=O)(=O)N2CCC(CCO)CC2)cc1-c1nc2c(CCC)cn(CC)c2c(=O)[nH]1     0.0013
2  CC(=O)CC(c1ccccc1)c1c(O)c2ccccc2oc1=O (stereo not shown) [Warfarin, reference compound]     0.0272
3  CCCOc1ccc(S(=O)(=O)N2CCN(CCO)CC2)cc1-c1nc2c(CCC)cn(CC)c2c(=O)[nH]1 [mirodenafil, reference compound]     0.0106
4  CCCc1cn(C)c2c(=O)[nH]c(-c3cc(S(=O)(=O)N4CCC(CCO[N+](=O)[O-])CC4)ccc3OCC)nc12     0.0035
5  CCCc1cn(C)c2c(=O)[nH]c(-c3cc(S(=O)(=O)N4CCC(CCO)CC4)ccc3OCC)nc12     0.0057
6  CCCOc1ccc(S(=O)(=O)N2CCC(CCO[N+](=O)[O-])CC2)cc1-c1nc2c(CCC)cn(CC)c2c(=O)[nH]1     0.0005
7  CCCc1nn(C)c2c(=O)[nH]c(-c3cc(S(=O)(=O)N4CCN(C)CC4)ccc3OCC)nc12 [sildenafil, reference compound]     0.0359

====

biological target: recombinant human (rh) PDE5A (Homo sapiens (Human), UniProt O76074); experiment: Phosphodiesterase-5 activity assay (Example 110), radiometric SPA; assay type: biochemical
ENDPOINT: IC50 (nM)

> print(dat)
                            structure.string  endpoint  obs.value
 1  CCCOc1ccc(S(=O)(=O)N2CCC([C@H](CO[N+](=O)[O-])O[N+](=O)[O-])CC2)cc1-c1nc2c(CCC)cn(C)c2c(=O)[nH]1      IC50         23
 2  CCCOc1ccc(S(=O)(=O)N2CCC([C@H](CO[N+](=O)[O-])O[N+](=O)[O-])CC2)cc1-c1nc2c(CCC)cn(CC)c2c(=O)[nH]1      IC50        3.5
 3  CCCOc1ccc(S(=O)(=O)N2CCC([C@@H](O)CO[N+](=O)[O-])CC2)cc1-c1nc2c(CCC)cn(C)c2c(=O)[nH]1      IC50          2
 4  CCCOc1ccc(S(=O)(=O)N2CCN(CCO[N+](=O)[O-])CC2)cc1-c1nc2c(CCC)c(/C=N/O)n(C)c2c(=O)[nH]1      IC50         12
 5  CCCOc1ccc(S(=O)(=O)N2CCC(CO[N+](=O)[O-])(CO[N+](=O)[O-])CC2)cc1-c1nc2c(CCC)cn(C)c2c(=O)[nH]1      IC50         14
 6  CCCOc1ccc(S(=O)(=O)N2CCC(CCO[N+](=O)[O-])(CCO[N+](=O)[O-])CC2)cc1-c1nc2c(CCC)cn(CC)c2c(=O)[nH]1      IC50        2.7
 7  CCCOc1ccc(S(=O)(=O)N2CCN(CCCO[N+](=O)[O-])CC2)cc1-c1nc2c(CCC)c(/C=N/O)n(C)c2c(=O)[nH]1      IC50         42
 8  CCCc1c(/C=N/O)n(C)c2c(=O)[nH]c(-c3cc(S(=O)(=O)N4CCN(CCO[N+](=O)[O-])CC4)ccc3OCC)nc12      IC50         31
 9  CCCOc1ccc(S(=O)(=O)N2C[C@H](CCO[N+](=O)[O-])N(C)[C@@H](CCO[N+](=O)[O-])C2)cc1-c1nc2c(CCC)cn(CC)c2c(=O)[nH]1      IC50        7.1
10  CCCOc1ccc(S(=O)(=O)N2CCC([C@@H](CO[N+](=O)[O-])O[N+](=O)[O-])CC2)cc1-c1nc2c(CCC)cn(C)c2c(=O)[nH]1      IC50        3.7
11  CCCOc1ccc(S(=O)(=O)N2CCN(CCCO[N+](=O)[O-])CC2)cc1-c1nc2c(CCC)cn(C)c2c(=O)[nH]1      IC50          9
12  CCCOc1ccc(S(=O)(=O)N2CCC([C@H](CO[N+](=O)[O-])O[N+](=O)[O-])CC2)cc1-c1nc2c(CCC)c(/C=N/O)n(C)c2c(=O)[nH]1      IC50         13
13  CCCOc1ccc(S(=O)(=O)N2CCC([C@@H](CO[N+](=O)[O-])O[N+](=O)[O-])CC2)cc1-c1nc2c(CCC)c(/C=N/O)n(C)c2c(=O)[nH]1      IC50         12

====

assay: Measurements of human plasma protein binding; format: in vitro ADME; settings: human
# Lookup of reported recovery keyed by entry
ENDPOINT: recovery (%)

> print(dat)
                                   molecule  endpoint  result.unit  obs.value
1  CCCOc1ccc(S(=O)(=O)N2CCN(CCO)CC2)cc1-c1nc2c(CCC)cn(CC)c2c(=O)[nH]1 [mirodenafil, reference compound]  recovery            %       99.2
2  CCCOc1ccc(S(=O)(=O)N2CCC(CCO)CC2)cc1-c1nc2c(CCC)cn(CC)c2c(=O)[nH]1 [Compound 5]  recovery            %        102
3  CCCc1cn(C)c2c(=O)[nH]c(-c3cc(S(=O)(=O)N4CCC(CCO)CC4)ccc3OCC)nc12 [Compound 14]  recovery            %       98.9

====

Reported IC50 values are given for each entry in this list.
molecular target: recombinant human (rh) PDE5A (Homo sapiens (Human), UniProt O76074); test: Phosphodiesterase-5 activity assay (Example 110), radiometric SPA; assay type: biochemical
ENDPOINT: IC50 (nM)

> print(dat)
                           structure.string                            assayed.target  endpoint  obs.value
1  CCCOc1ccc(S(=O)(=O)N2CCC(CO[N+](=O)[O-])CC2)cc1-c1nc2c(CCC)cn(C)c2c(=O)[nH]1  recombinant human (rh) PDE5A (Homo sapiens (Human), UniProt O76074)      IC50         15
2  CCCOc1ccc(S(=O)(=O)N2C[C@@H](CCO[N+](=O)[O-])N(C)[C@@H](CCO[N+](=O)[O-])C2)cc1-c1nc2c(CCC)cn(CC)c2c(=O)[nH]1  recombinant human (rh) PDE5A (Homo sapiens (Human), UniProt O76074)      IC50        8.6
3  CCCOc1ccc(S(=O)(=O)N2CCC([C@@H](CO[N+](=O)[O-])O[N+](=O)[O-])CC2)cc1-c1nc2c(CCC)cn(CC)c2c(=O)[nH]1  recombinant human (rh) PDE5A (Homo sapiens (Human), UniProt O76074)      IC50        3.2

Data provenance: patent US11155558B2
